System: M. tuberculosis H37Rv
protocolText: Antitubercular activity assay, broth dilution, auto-luminescent strain
Format: cell-based, Mycobacterium tuberculosis
testSettings: Mycobacterium tuberculosis, H37RV, Day 3rd; read-out: MICs against H37Rv, Day 3rd
Starred links: 1 amine or outer side, 2 acyl side, 3 side chain; linkers in the order of their positions; H or OH if unused. Non-standard residues stand in square brackets, D forms with d. Residues, ends and D or L forms follow the SMILES beside them. X3 = O=C(Cc1ccc(F)cc1)Oc1ccc(C[C@H](N[*:1])C(=O)[*:2])cc1[N+](=O)[O-]; X4 = COC(=O)[C@H](CCSC)NC(=O)[C@@H](C)C[C@@H](C(=O)[*:2])N(C)[*:1]; Trp(1-(1,1-Me2-allyl)) = C=CC(C)(C)n1cc(C[C@H](N)C(=O)O)c2ccccc21; NMeGlu(4S-Me) = C[C@@H](C[C@@H](C(=O)[*:2])N(C)[*:1])C(=O)[*:3]; X1 = C[C@@H](C[C@@H](C(=O)[*:2])N(C)[*:1])C(=O)NCc1ccc(F)cc1; Tyr(3-NO2) = N[C@@H](Cc1ccc(O)c([N+](=O)[O-])c1)C(=O)O; Gly(E-crotyl) = C/C=C/C[C@H](N)C(=O)O; NMeL = CN[C@@H](CC(C)C)C(=O)O
quantity: MIC

Entry C=CC(C)(C)n1cc(C[C@@H]2NC(=O)[C@H](C/C=C/C)NC(=O)[C@H](CC(C)C)NC(=O)[C@H](C[C@H](C)C(=O)N[C@@H](CCSC)C(=O)OC)N(C)C(=O)[C@H](C)NC(=O)[C@H](Cc3ccc(O)c([N+](=O)[O-])c3)NC(=O)[C@H](CC(C)C)N(C)C2=O)c2ccccc21 [Compound 2, ilamycin NJL2] (cyclo(A[X4]L[Gly(E-crotyl)][Trp(1-(1,1-Me2-allyl))][NMeL][Tyr(3-NO2)])) — recorded MIC = 6.7 µM

Entry C=CC(C)(C)n1cc(C[C@@H]2NC(=O)[C@H](C/C=C/C)NC(=O)[C@H](CC(C)C)NC(=O)[C@H](C[C@H](C)C(=O)O)N(C)C(=O)[C@H](C)NC(=O)[C@H](Cc3ccc(OC(=O)Cc4ccc(F)cc4)c([N+](=O)[O-])c3)NC(=O)[C@H](CC(C)C)N(C)C2=O)c2ccccc21 [Compound 17, ilamycin NJL17] (cyclo(A[NMeGlu(4S-Me)]L[Gly(E-crotyl)][Trp(1-(1,1-Me2-allyl))][NMeL][X3])) — recorded MIC = 27.2 µM

Entry C=CC(C)(C)n1cc(C[C@@H]2NC(=O)[C@H](C/C=C/C)NC(=O)[C@H](CC(C)C)NC(=O)[C@H](C[C@H](C)C(=O)NCc3ccc(F)cc3)N(C)C(=O)[C@H](C)NC(=O)[C@H](Cc3ccc(O)c([N+](=O)[O-])c3)NC(=O)[C@H](CC(C)C)N(C)C2=O)c2ccccc21 [Compound 10, ilamycin NJL10] (cyclo(A[X1]L[Gly(E-crotyl)][Trp(1-(1,1-Me2-allyl))][NMeL][Tyr(3-NO2)])) — recorded MIC = 1.6 to 3.5 µM
